System: NCI-H187;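 also: growth inhibition of NCI-H187 cells, read out as cell viability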
Test: cells
Type: functional, cell-based
Conditions: Homo sapiens
Description: SANGER: Inhibition of human NCI-H187 cell growth in a cell viability assay.
metric: pIC50
// pIC50: -log10(molar conc.)

In: Look up pIC50: COc1cc([C@@H]2c3cc4c(cc3[C@@H](O[C@@H]3O[C@@H]5CO[C@@H](C)O[C@H]5[C@H](O)[C@H]3O)[C@H]3COC(=O)[C@H]23)OCO4)cc(OC)c1O [ETOPOSIDE]
Out: 6.17

In: Try CCC(=O)N1CCN(c2ccc(-n3c(=O)ccc4cnc5ccc(-c6cnc7ccccc7c6)cc5c43)cc2C(F)(F)F)CC1 [TORIN1] next.
Out: 6.32

In: Try Cc1cc(Nc2cc(N3CCN(C)CC3)nc(Sc3ccc(NC(=O)C4CC4)cc3)n2)n[nH]1 [TOZASERTIB] next.
Out: 6.19

In: Try CCC1=C[C@@H]2CN(C1)Cc1c([nH]c3ccccc13)[C@@](C(=O)OC)(c1cc3c(cc1OC)N(C)[C@H]1[C@@](O)(C(=O)OC)[C@H](OC(C)=O)[C@]4(CC)C=CCN5CC[C@]31[C@@H]54)C2 [VINORELBINE] next.
Out: 7.85

----------
System: SKG-IIIa;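 also: cell growth inhibition, read out with a cell viability assay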
Experiment: cells
Assay type: functional, cell-based, Homo sapiens
Settings: Homo sapiens, SKG-IIIa
Description: SANGER: Inhibition of human SKG-IIIa cell growth in a cell viability assay.
pIC50: −log10 of the molar value.
For each entry below, report its pIC50 value.

In: Look up pIC50: `Cn1cncc1[C@@](N)(c1ccc(Cl)cc1)c1ccc2c(c1)c(-c1cccc(Cl)c1)cc(=O)n2C`
Out: < 4.80

In: Try `C=CCc1cccc(/C=N/NC(=O)CN2CCN(Cc3ccccc3)CC2)c1O` next.
Out: < 5.59

In: Try `Cn1cc(C2=C(c3ccc(Cl)cc3Cl)C(=O)NC2=O)c2ccccc21` next.
Out: < 5.00

In: Try `COC(=O)CNC(=O)C(=O)OC` next.
Out: 3.51

In: Try `Cc1cnc(-c2cnc(NCCNc3ccc(C#N)cn3)nc2-c2ccc(Cl)cc2Cl)[nH]1` next.
Out: < 5.59

In: Try `O=C1N=C(NCc2cccs2)S/C1=C\c1ccc2ncccc2c1` next.
Out: < 5.30

In: Try `COc1ccc(-c2ccc3c(N4CCOC[C@@H]4C)nc(N4CCOC[C@@H]4C)nc3n2)cc1CO` next.
Out: 5.88

----------
Test system: SW756
Assay: cells
Format: functional, cell-based, Homo sapiens
Conditions: Homo sapiens, SW756
Description: SANGER: Inhibition of human SW756 cell growth in a cell viability assay.
metric: pIC50
// pIC50: -log10(molar conc.)

In: Look up pIC50: `COC(=O)CNC(=O)C(=O)OC`
Out: 3.86

In: Try `C=CCNC1=C2C[C@@H](C)C[C@H](OC)[C@H](O)[C@@H](C)/C=C(\C)[C@H](OC(N)=O)[C@@H](OC)/C=C\C=C(/C)C(=O)NC(=CC1=O)C2=O` next.
Out: 6.35

----------
System: DoTc2-4510
Test: cells
Assay type: functional, cell-based, Homo sapiens
Conditions: Homo sapiens, DoTc2-4510
For each entry below, report its IC50 value.

In: Form field: IC50 recorded for `C=CCc1cccc(/C=N/NC(=O)CN2CCN(Cc3ccccc3)CC2)c1O` with DoTc2-4510 (enter value)
Out: > 2560 nM

In: Try `Cc1cnc(-c2cnc(NCCNc3ccc(C#N)cn3)nc2-c2ccc(Cl)cc2Cl)[nH]1` next.
Out: > 2560 nM

In: Try `CCOc1nc(NC(=O)Cc2cc(OC)ccc2OC)cc(N)c1C#N` next.
Out: > 10000 nM

In: Try `CC(=O)O[C@@]12CO[C@@H]1C[C@H](O)[C@@]1(C)C(=O)[C@H](O)C3=C(C)[C@@H](OC(=O)[C@H](O)[C@@H](NC(=O)OC(C)(C)C)c4ccccc4)C[C@@](O)([C@@H](OC(=O)c4ccccc4)[C@H]21)C3(C)C` next.
Out: > 10 nM

In: Try `C[C@]1(O)C[C@@H](c2nc(-c3ccc4ccc(-c5ccccc5)nc4c3)c3c(N)nccn32)C1` next.
Out: > 2560 nM
